# RUN_CONDITIONS: mice, 25 mg/kg PO, feces collected 24 h
The label depends only on Fecal concentration from 25 mg/kg dose: 1 if it is at least 3 µM, -1 if it is smaller.

In [3]: df
Out[3]:
                                   molecule  group_label
0  CCOc1ccc2cc(-c3nn(C(C)(C)CO)c(N)c3C(N)=O)ccc2n1           -1
1  CCOc1ccc2cc(-c3nn(C(C)CCO)c(N)c3C(N)=O)cnc2c1 (centres unmarked)           -1
2  CCOc1ccc2cc(-c3nn(C(C)(C)CO)c(N)c3C(N)=O)cnc2c1           -1
3  CC(C)(C)n1nc(-c2ccc3cc(OC4CC4)ccc3c2)c(C(N)=O)c1N           -1
4  CC(CCO)n1nc(-c2ccc3cc(OC4CC4)ccc3c2)c(C(N)=O)c1N (centres unmarked)            1

* * *

# RUN_CONDITIONS: mice, 25 mg/kg PO, feces collected 24 h
REPORTED_METRIC: Fecal concentration from 25 mg/kg dose (µM)

>>> df
                                   compound                         reported_metric  measurement_units  recorded_result
0  CCOc1ccc2cc(-c3nn(CC(C)(C)CO)c(N)c3C(N)=O)ccc2c1 [Compound 3]  Fecal concentration from 25 mg/kg dose                 µM              7.6
1  CCOc1ccc2cc(-c3nn(C(C)(C)CO)c(N)c3C(N)=O)ccc2c1 [Compound 21]  Fecal concentration from 25 mg/kg dose                 µM              7.1
2  CC(C)(CO)n1nc(-c2ccc3cc(OC4CC4)ccc3c2)c(C(N)=O)c1N [Compound 24]  Fecal concentration from 25 mg/kg dose                 µM              3.5
3  CCOc1ccc2cc(-c3nn(CC4CC4)c(N)c3C(N)=O)ccc2c1 [Compound 27]  Fecal concentration from 25 mg/kg dose                 µM               54

* * *

# System: Nluc-expressing C. parvum
# RUN_CONDITIONS: IFN-γ KO mice, 60 mg/kg QD for 5 days
REPORTED_METRIC: Efficacy in words

                                   compound    reported_metric  recorded_result
0  CC(C)(C)n1nc(-c2ccc3cc(OC4CC4)ccc3c2)c(C(N)=O)c1N  Efficacy in words      efficacious
1  CCOc1ccc2cc(-c3nn(C(C)CCO)c(N)c3C(N)=O)ccc2c1 (stereo not shown)  Efficacy in words      efficacious
